- tested system: PKM2 (Homo sapiens, UniProt P14618)
- Sequence (P14618 whole entry): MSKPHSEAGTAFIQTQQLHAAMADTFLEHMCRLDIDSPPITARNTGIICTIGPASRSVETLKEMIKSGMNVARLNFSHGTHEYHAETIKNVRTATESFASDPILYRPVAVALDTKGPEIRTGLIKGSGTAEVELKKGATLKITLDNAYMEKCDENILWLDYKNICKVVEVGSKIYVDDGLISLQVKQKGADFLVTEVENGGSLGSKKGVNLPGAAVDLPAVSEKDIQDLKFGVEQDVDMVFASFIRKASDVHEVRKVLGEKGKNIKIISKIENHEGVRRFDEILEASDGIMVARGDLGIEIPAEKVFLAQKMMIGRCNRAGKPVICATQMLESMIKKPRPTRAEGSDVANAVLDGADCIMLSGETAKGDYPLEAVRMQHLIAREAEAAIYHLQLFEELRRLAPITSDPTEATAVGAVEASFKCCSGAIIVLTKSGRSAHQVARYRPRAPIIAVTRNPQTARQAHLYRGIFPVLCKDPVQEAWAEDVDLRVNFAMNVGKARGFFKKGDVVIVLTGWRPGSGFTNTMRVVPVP
- assay info: PKM2 activation biochemical assay (AC50 / max. response vs fructose 1,6-bisphosphate)
- assay conditions: % maximum response in a biochemical assay as compared with Fructose 1,6-bisphosphate
measured endpoint: Max. Resp. (%)
Supply the numeric figure in %, leaving out any unit text.

Recorded Max. Resp. (%), per entry:
| molecule | experimental result |
| --- | --- |
| O=C(c1cc(C(F)(F)F)n[nH]1)N(Cc1ccc(O)cc1F)CC1COC1 | 102 |
| CCN(CC)CCN(Cc1ccccc1Cl)C(=O)c1[nH]nc(Cl)c1F | 58 |
| O=C(c1cc(C(F)(F)F)n[nH]1)N(CCN1CCCCCC1)Cc1ccc(O)cc1Cl | 100 |
| O=C(c1cc(C(F)(F)F)n[nH]1)N(Cc1ccccc1Cl)CC1CCS(=O)(=O)CC1 | 22 |
| O=C(c1cc(C(F)(F)F)n[nH]1)N(CCC1CCC2(CC1)OCCO2)Cc1ccccc1F | 100 |
| CCN(CC)CCN(Cc1cccc(N)c1)C(=O)c1cc(C(F)(F)F)n[nH]1 | 100 |
| CC1CCN(CCN(Cc2ccccc2Cl)C(=O)c2cc(C(F)(F)F)n[nH]2)CC1 | 100 |
| Nc1cccc(Cl)c1CN(CCN1CCCC(F)CC1)C(=O)c1cc(C(F)(F)F)n[nH]1 (centres unmarked) | 100 |

Record summary for O=C(c1cc(C(F)(F)F)n[nH]1)N(CCC1CCS(=O)(=O)C1)Cc1cccnc1 (centres unmarked) : reported Max. Resp. (%) = 24

Per the records, this molecule ( O=C(c1cc(C(F)(F)F)n[nH]1)N(CCN1CCC(O)CC1)Cc1ccccc1Cl ) has Max. Resp. (%) equal to 100

Note to self: Max. Resp. (%) recorded for O=C(CCSC(=S)NCc1cccnc1)c1ccc(F)c(F)c1 was 42

Given item O=C(c1cc(C(F)(F)F)n[nH]1)N(CCC1CCCOC1)Cc1ccccc1Cl (centres unmarked) , the value recorded as its Max. Resp. (%) is 88

The measured Max. Resp. (%) associated with CCN(CCN(Cc1ccccc1Cl)C(=O)c1cc(C(F)(F)F)n[nH]1)C(C)C reads 53

Summary for this molecule, Nc1cc(C(=O)N(Cc2ccc(O)cc2F)CC2CCC2)[nH]n1 : Max. Resp. (%) is 45

Reported Max. Resp. (%) for CCCCCN(Cc1ccccc1F)C(=O)c1cc(C(F)(F)F)n[nH]1 was 83

Lab note: O=C(c1cc(C(F)(F)F)n[nH]1)N(Cc1ccc(O)cc1F)CC1CCC1 [Compound 1] gave Max. Resp. (%) of 100

Recorded Max. Resp. (%) (molecule CCN(CC)CCN(Cc1c(F)cccc1Cl)C(=O)c1cc(C(F)(F)F)n[nH]1 ): 100

Sample O=C(c1cc(Br)n[nH]1)N(CCC1CCS(=O)(=O)CC1)Cc1ccccc1F ; Max. Resp. (%) observed: 98

For record O=C(c1cc(C(F)(F)F)n[nH]1)N(CCc1ccc(O)cc1)Cc1ccccc1Cl the listed Max. Resp. (%) is 100

Data point: CC1CCCCN1CCN(Cc1ccccc1Cl)C(=O)c1cc(C(F)(F)F)n[nH]1 (centres unmarked) ; Max. Resp. (%) = 100

Measured Max. Resp. (%) of O=C(c1cc(C(F)(F)F)n[nH]1)N(CCC1CCS(=O)(=O)C1)Cc1ccccc1F (centres unmarked) : 87

The reported value for O=C(c1cc(C(F)(F)F)n[nH]1)N(CCC1CCOC1)Cc1ccc(O)cc1F (centres unmarked) in terms of Max. Resp. (%) is 109

For this molecule ( CS(=O)(=O)N1CCC(CCN(Cc2ccccc2F)C(=O)c2cc(C(F)(F)F)n[nH]2)CC1 ), measured Max. Resp. (%) is 100

The reported numbers originate from patent US20200237766A1.
